tested on: Vero E6 infected with SARS-CoV-2; test: SARS-CoV-2 infection rate relative to infected DMSO; higher = more infection, active = 60 or less; details: 24 h
MEASURE_NAME: SARS-CoV-2 infection rate

molecule="CCC(=O)OCN1C(=O)C=CC1=O (10 µM)" result="97% (inactive)"
molecule="Nc1ncccc1-c1nc2ccc(-c3ccccc3)nc2n1-c1ccc(C2(N)CCC2)cc1 (10 µM)" result="29.5% (active)"
molecule="O=C(O)Cc1ccc(CCNS(=O)(=O)c2ccc(Cl)cc2)cc1 [daltroban] (10 µM)" result="97.5% (inactive)"
molecule="CCOC(=O)Nc1ccc2c(c1)N(C(=O)CCN1CCOCC1)c1ccccc1S2 [moracizine] (10 µM)" result="112% (inactive)"

* * *

system: Vero E6 infected with SARS-CoV-2; experiment: inhibition of SARS-CoV-2 cytopathic effect; higher = more antiviral protection, active = above 15; conditions: 100 nM; 48 h
Labels: t for active, f for inactive

compound="COCCCOc1ccnc(C[S+]([O-])c2nc3ccccc3[nH]2)c1C (centres undefined)" class_label=f
compound=Cc1[nH]cnc1-c1ccc(Cl)cc1 class_label=t
compound=Cc1[nH]c2ccc(Cl)cc2c1C1=CCNCC1 class_label=f
compound=CC(C)c1cc(CNc2nc(Nc3cc(C4CC4)[nH]n3)cc(N3CCN(C)CC3)n2)on1 class_label=f
compound=CC(C)(C)NC(=O)[C@@H]1C[C@@H]2CCCC[C@@H]2CN1C[C@@H](O)[C@H](Cc1ccccc1)NC(=O)[C@H](CC(N)=O)NC(=O)c1ccc2ccccc2n1 class_label=f
compound=O=C(CCN1CCN(C(=O)OCc2cc(Cl)cc(Cl)c2)CC1)c1ccc2[nH]c(=O)oc2c1 class_label=f
compound=Cc1ccc(-c2c(-c3nn(C)c4ncnc(N5CC[C@H](N6CCCCC6)C5)c34)cnn2C)cc1 class_label=f
compound=Cc1sc2c(c1C)C(c1ccc(Cl)cc1)=N[C@@H](CC(=O)Nc1ccc(O)cc1)c1nnc(C)n1-2 class_label=f
compound=O=C(O)c1ccc2[nH]cc(CCCCN3CC=C(c4ccccc4)CC3)c2c1 class_label=f

* * *

tested on: Vero E6 infected with SARS-CoV-2; assay: inhibition of SARS-CoV-2 cytopathic effect; higher = more antiviral protection, active = above 15; conditions: 8.33 nM; 48 h
// reported inhibition of SARS-CoV-2 cytopathic effect for each item listed
MEASURE_NAME: inhibition of SARS-CoV-2 cytopathic effect (%)

compound=CNc1cc2c(Nc3cccc(Br)c3)ncnc2cn1 study_target="Vero E6 infected with SARS-CoV-2" numeric_readout=-0.58
compound=CCc1cc(C(C)=O)c(O)cc1OCCCCCC(C)(C)c1nn[nH]n1 study_target="Vero E6 infected with SARS-CoV-2" numeric_readout=0.23
compound=O=C(/C=C/N1C[C@H]2C[C@@H]1CN2c1ccccn1)c1ccccc1O study_target="Vero E6 infected with SARS-CoV-2" numeric_readout=-1.55
compound="COc1c(O)cc2c(c1O)[C@@H]1O[C@H](CO)[C@@H](O)[C@H](O)[C@H]1OC2=O [bergenin]" study_target="Vero E6 infected with SARS-CoV-2" numeric_readout=-2.26
compound="Cc1cc(C)cc(C(=O)O[C@H]2C[C@H]3CC[C@@H](C2)N3C)c1 [tropanyl-3,5-dimethylbenzoate]" study_target="Vero E6 infected with SARS-CoV-2" numeric_readout=1.19
compound=Clc1cccc(-c2nnnn2Cc2cccnc2)c1Cl study_target="Vero E6 infected with SARS-CoV-2" numeric_readout=-0.7
compound="Oc1ccc(Cl)cc1Cc1cc(Cl)ccc1O [dichlorophen]" study_target="Vero E6 infected with SARS-CoV-2" numeric_readout=0.22
compound="Cc1cccc(N(C)C(=S)Oc2ccc3ccccc3c2)c1 [tolnaftate]" study_target="Vero E6 infected with SARS-CoV-2" numeric_readout=0.08
compound=NC1=N[C@@]2(c3cc(NC(=O)c4ccc(F)cn4)ccc3F)COC[C@H]2CS1 study_target="Vero E6 infected with SARS-CoV-2" numeric_readout=-0.32
compound="CCN(CC)CCOC(=O)C1(c2ccccc2)CCCC1 [caramiphen]" study_target="Vero E6 infected with SARS-CoV-2" numeric_readout=-4.75
compound="CCOC(=O)COc1ccc2c(=O)cc(-c3ccccc3)oc2c1 [efloxate]" study_target="Vero E6 infected with SARS-CoV-2" numeric_readout=0.67
compound=CC(C)NCCCn1c(Sc2cc3c(cc2I)OCO3)nc2c(N)ncnc21 study_target="Vero E6 infected with SARS-CoV-2" numeric_readout=-0.68
compound=CN1CCC[C@@H]1CCSc1ccc(O)cc1 study_target="Vero E6 infected with SARS-CoV-2" numeric_readout=0.01
compound="NC[C@@H](O)CC(=O)O [aminohydroxybutyric-acid]" study_target="Vero E6 infected with SARS-CoV-2" numeric_readout=-1.06
compound="CCN(CC)CCOCCOC(=O)C(CC)(CC)c1ccccc1 [oxelaidin]" study_target="Vero E6 infected with SARS-CoV-2" numeric_readout=0.15
